Target: Human cytomegalovirus DNA polymerase (Human cytomegalovirus, UniProt P08546)
Construct: made in house; host or cells: SF21 insect cells (baculovirus vector)
Sequence (P08546 whole entry): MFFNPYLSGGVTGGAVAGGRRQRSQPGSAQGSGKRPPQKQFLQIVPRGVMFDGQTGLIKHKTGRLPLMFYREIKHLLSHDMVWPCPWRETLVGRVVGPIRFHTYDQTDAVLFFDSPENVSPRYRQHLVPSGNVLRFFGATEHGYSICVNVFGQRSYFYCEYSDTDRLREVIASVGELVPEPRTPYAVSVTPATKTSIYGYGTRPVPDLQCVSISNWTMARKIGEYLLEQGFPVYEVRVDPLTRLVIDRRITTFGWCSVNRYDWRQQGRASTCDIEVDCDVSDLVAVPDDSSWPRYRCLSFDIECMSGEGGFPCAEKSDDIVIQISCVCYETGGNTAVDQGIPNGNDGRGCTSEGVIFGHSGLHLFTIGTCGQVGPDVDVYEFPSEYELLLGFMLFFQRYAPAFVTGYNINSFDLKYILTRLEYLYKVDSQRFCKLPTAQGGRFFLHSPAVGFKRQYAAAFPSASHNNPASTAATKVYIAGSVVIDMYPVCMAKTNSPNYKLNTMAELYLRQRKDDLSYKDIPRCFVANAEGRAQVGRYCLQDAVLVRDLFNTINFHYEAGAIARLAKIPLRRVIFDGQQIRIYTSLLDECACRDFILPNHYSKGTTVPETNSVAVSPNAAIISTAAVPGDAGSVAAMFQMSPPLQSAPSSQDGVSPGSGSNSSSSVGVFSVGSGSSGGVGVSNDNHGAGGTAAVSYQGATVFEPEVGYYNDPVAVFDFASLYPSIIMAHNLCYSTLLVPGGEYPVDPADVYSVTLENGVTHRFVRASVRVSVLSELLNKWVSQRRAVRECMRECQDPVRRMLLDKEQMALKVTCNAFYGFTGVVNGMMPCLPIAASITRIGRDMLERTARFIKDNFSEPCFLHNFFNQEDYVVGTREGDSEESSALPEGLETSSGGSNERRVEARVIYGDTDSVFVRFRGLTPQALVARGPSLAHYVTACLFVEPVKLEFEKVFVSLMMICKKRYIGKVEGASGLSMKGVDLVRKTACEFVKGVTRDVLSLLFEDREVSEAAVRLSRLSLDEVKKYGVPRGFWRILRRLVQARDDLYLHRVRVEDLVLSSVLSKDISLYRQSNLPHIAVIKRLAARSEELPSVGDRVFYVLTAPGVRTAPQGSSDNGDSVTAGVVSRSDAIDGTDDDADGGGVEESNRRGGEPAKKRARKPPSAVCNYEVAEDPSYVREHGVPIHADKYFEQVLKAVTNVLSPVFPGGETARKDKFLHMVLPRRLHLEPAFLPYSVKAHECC
Assay: CMV polymerase assay (AlphaLISA)
Assay type: biochemical
Details: HCMV polymerase 0.2 nM; 30 min pre-incubation; 60 min at 37° C.; read-out: CMV (IC50)
pIC50: −log10 of the molar value.
Rule: pIC50 under 8 gives NOT MET, otherwise MET.

Input: Is pIC50 for COc1nc(-c2cc(C)no2)c(O[C@H]2CCN3C(=O)OC[C@@H]3C2)cc1C(=O)NCc1ccc(Cl)cc1 at or above 8?
Output: MET

Input: Test whether the molecule COc1nc(-c2cccc3cc[nH]c23)c(O[C@H]2CCN3C(=O)OC[C@@H]3C2)cc1C(=O)NCc1ccc(Cl)cc1 records pIC50 of 8 or higher.
Output: NOT MET

Input: State whether the measured pIC50 reaches 8, counting equality as reaching it, for COc1nc(C2CC3(CC(O)C3)C2)c(O[C@H]2CCN3C(=O)OC[C@@H]3C2)cc1C(=O)NCc1ccc(Cl)cc1 (stereo partly shown)
Output: NOT MET

Input: Threshold query (pIC50 >= 8) on CCN(CC)CCOc1nc(-c2cnn(C(F)F)c2)c(O[C@H]2CCN3C(=O)OC[C@@H]3C2)cc1C(=O)NCc1ccc(Cl)cc1
Output: MET

Input: Determine whether this molecule has pIC50 no lower than 8: COc1nc(-c2cncs2)c(O[C@H]2CCN3C(=O)OC[C@@H]3C2)cc1C(=O)NCc1ccc(Cl)cc1
Output: MET

Input: Is it the case that COc1nc(-c2ccc(C)s2)c(O[C@H]2CCN3C(=O)OC[C@@H]3C2)cc1C(=O)NCc1ccc(Cl)cc1 has pIC50 reaching or exceeding 8?
Output: NOT MET

These data points were gathered from patent US20240083910A1.
